- targetOrSystem: von Hippel-Lindau disease tumor suppressor (Homo sapiens, UniProt P40337)
- Sequence (P40337 whole entry): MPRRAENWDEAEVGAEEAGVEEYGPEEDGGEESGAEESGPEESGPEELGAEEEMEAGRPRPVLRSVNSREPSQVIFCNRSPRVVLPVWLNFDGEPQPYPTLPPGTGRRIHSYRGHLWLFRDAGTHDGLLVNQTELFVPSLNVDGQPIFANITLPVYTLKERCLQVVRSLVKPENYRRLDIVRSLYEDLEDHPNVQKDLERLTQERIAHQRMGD
- experiment: VHL HEK-293 BRET Assay
Measured pIC50 of individual entries
Field pIC50 (float): negative decimal logarithm of the concentration in molar.

Q: Entry "CNC(=O)[C@@H]1C[C@@H](O)CN1C(=O)[C@H](C(C)C)n1cc(-c2cncs2)nn1" : reported pIC50 = ?
Result: 6.05

Q: Entry "CNC(=O)[C@@H]1C[C@@H](OC(C)=O)CN1C(=O)[C@H](n1cc(C2CC2)nn1)C(C)(C)C" : reported pIC50 = ?
Result: 4.20

Q: Entry "CNC(=O)[C@@H]1C[C@@H](O)CN1C(=O)[C@H](C(C)C)n1cc(C2(C)CC2)nn1" : reported pIC50 = ?
Result: 5.92

Q: Entry "CNC(=O)[C@@H]1C[C@@H](O)CN1C(=O)C(=C(C)C)n1cc(C2CC2)nn1" : reported pIC50 = ?
Result: 5.32

Q: Entry "CNC(=O)[C@@H]1C[C@@H](O)CN1C(=O)[C@H](C(C)C)n1cc(C2CC2)nn1" : reported pIC50 = ?
Result: 5.52

====

Measured IC50 of individual entries
- targetOrSystem: von Hippel-Lindau disease tumor suppressor (Homo sapiens)
- experiment: VHL HEK-293 BRET Assay

As a guide, the following entries are already answered.
>>> result("CNC(=O)[C@@H]1C[C@@H](O)CN1C(=O)[C@H](C1CCN(C)CC1)n1cc(C2CC2)nn1")
"> 100 µM"
>>> result("CNC(=O)[C@@H]1C[C@@H](O)CN1C(=O)[C@H](C1CCNCC1)n1cc(C2CC2)nn1")
"> 100 µM"

Turning now to a further record.
Q: Entry "CNC(=O)[C@@H]1C[C@@H](O)CN1C(=O)[C@@H](C(C)C)n1cc(C2CC2)nn1" : reported IC50 = ?
Result: > 100 µM
